src = the RNAGym collection of RNA variant scans (doi:10.1126/science.aae0568)

B1: tRNA (parent)
chain: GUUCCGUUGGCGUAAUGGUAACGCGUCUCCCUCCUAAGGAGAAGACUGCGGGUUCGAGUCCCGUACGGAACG

# Variants of: B1
# ASSAY_NAME: yeast fitness relative to wild type (ratio to wild type); higher = fitter; tRNA-Arg(CCU), competitive growth, 37 C, YPD
Fewer inactive variants are shown than the library holds.
Let's look at some variants and their measured yeast fitness.
Respond with the number and no other words.

stdin: Consider the variant shown here: GUUCCGUUGGCGUAAUGGUAACGCGUCUCCCUCCUAAGGAGAAGUUUGCGGGUUCGAGUCCCGUACGGAACG [A45U C46U] What is its recorded yeast fitness?
stdout: 1.09

stdin: Consider the variant shown here: GUUCUGUUGGCGUAAUGGAAACGCGUCUCCCUCCUAAGGAGAAGACUACGGGUUCGAGUCCCGUACGGAACG [C5U U19A G48A] What is its recorded yeast fitness?
stdout: 0.741

stdin: Consider the variant shown here: GUUCCGUUGGCGUAAUGGUAACGCGUCUCCAUCCUAAGGAGAAGACUGCGGGUUCGAGGCCCGUACGGAACG [C31A U59G] What is its recorded yeast fitness?
stdout: 0.771

stdin: Consider the variant shown here: GUUCCGUUGGCGUAUUGGUAACGCGUCUCCCUCCUAAGGAGAAGCCUGCGGGUUCGAGUCCCGUACGGAACG [A15U A45C] What is its recorded yeast fitness?
stdout: 0.803

stdin: Consider the variant shown here: GGUACGUUGGCGUAACGGUAACGCGUCUCCCUCCUAAGGAGAAGACUGCGGGUUCGAGUCGCGUACGGAACG [U2G C4A U16C C61G] What is its recorded yeast fitness?
stdout: 0.571

stdin: Consider the variant shown here: GUUCCAUUGGCGUAAUGGUAACGCGUCUCCCUCCUAAGGAGAAGACUGCGGGUUCGAGUCCCGUAUGGAACG [G6A C66U] What is its recorded yeast fitness?
stdout: 1.03

stdin: Consider the variant shown here: GUUCCGUUGGCGUAAUGGUAACGCGUCUCCUUCCUAAGGAGAAGAGUGCGGGUUCGAGUCCCGUACGGAACG [C31U C46G] What is its recorded yeast fitness?
stdout: 0.972

stdin: Consider the variant shown here: GUUCCGUUGGCGUAUUGGUAACGCGUCUACCUCUUAAGGAGAAGACUGCGGGUUAGAGUCCCGUACGGAACG [A15U C29A C34U C55A] What is its recorded yeast fitness?
stdout: 0.519

stdin: Consider the variant shown here: GUUCCGUUGGCGUAAUGGUAACGCGUCUCCCCCCUAAGGAGAAGACUGUGGGUUCGAGUCCCGUGCGGAACG [U32C C49U A65G] What is its recorded yeast fitness?
stdout: 0.778

stdin: Consider the variant shown here: GUUCCGUUGGCGUAAUGGUAACGCGUCUCCCUCGUAAGGAGAAGAAUGCGGGUUCGAGUCCUGUACGGAACG [C34G C46A C62U] What is its recorded yeast fitness?
stdout: 0.541

stdin: Consider the variant shown here: GUUCCGUUGGCGUAAUGGUAACGCGUGUCCCUCCUAAGGAGAAGACUGCGGGUUCGUGUCCUGUACGGAACG [C27G A57U C62U] What is its recorded yeast fitness?
stdout: 0.62

stdin: Consider the variant shown here: GUUCCGUUGGUGUAAUGGUAACGCGCCUCCCUCCUAAGGAGAAGACAGCGGGUUCGAGUCCCGUACGGAACG [C11U U26C U47A] What is its recorded yeast fitness?
stdout: 0.555

stdin: Consider the variant shown here: GUUCCGUUGGAGUAGUGGUAACGCGUCUCCCUCCUAAGGAGAAGACUGCGGGUUCGAGUCCCGUACGGAACG [C11A A15G] What is its recorded yeast fitness?
stdout: 0.711

stdin: Consider the variant shown here: GUUCCGUUGGCGUAAUGGUAACGCGUCUCCCUCCUAAGGAGAAAACUGCGGGUUCGAAUCCCGUACGGAACG [G44A G58A] What is its recorded yeast fitness?
stdout: 0.955

stdin: Consider the variant shown here: GUUCCGUUGGCGUAAUGGUAACGCGUCUCCCUCCUAAGGAGAAGACGGCGGGUUCGAGUCCCGCACGGAACG [U47G U64C] What is its recorded yeast fitness?
stdout: 0.622
